Biological target: T1, human soluble αvβ5 protein (extracellular domains of human αv and β5 integrin subunits) (human, UniProt P06756 31-992; P18084 24-719)
T1 construct: also called biotin-αvβ5; hsαvβ5
T1 sequence (P06756 31-992 limits assumed, chain 1 of 2): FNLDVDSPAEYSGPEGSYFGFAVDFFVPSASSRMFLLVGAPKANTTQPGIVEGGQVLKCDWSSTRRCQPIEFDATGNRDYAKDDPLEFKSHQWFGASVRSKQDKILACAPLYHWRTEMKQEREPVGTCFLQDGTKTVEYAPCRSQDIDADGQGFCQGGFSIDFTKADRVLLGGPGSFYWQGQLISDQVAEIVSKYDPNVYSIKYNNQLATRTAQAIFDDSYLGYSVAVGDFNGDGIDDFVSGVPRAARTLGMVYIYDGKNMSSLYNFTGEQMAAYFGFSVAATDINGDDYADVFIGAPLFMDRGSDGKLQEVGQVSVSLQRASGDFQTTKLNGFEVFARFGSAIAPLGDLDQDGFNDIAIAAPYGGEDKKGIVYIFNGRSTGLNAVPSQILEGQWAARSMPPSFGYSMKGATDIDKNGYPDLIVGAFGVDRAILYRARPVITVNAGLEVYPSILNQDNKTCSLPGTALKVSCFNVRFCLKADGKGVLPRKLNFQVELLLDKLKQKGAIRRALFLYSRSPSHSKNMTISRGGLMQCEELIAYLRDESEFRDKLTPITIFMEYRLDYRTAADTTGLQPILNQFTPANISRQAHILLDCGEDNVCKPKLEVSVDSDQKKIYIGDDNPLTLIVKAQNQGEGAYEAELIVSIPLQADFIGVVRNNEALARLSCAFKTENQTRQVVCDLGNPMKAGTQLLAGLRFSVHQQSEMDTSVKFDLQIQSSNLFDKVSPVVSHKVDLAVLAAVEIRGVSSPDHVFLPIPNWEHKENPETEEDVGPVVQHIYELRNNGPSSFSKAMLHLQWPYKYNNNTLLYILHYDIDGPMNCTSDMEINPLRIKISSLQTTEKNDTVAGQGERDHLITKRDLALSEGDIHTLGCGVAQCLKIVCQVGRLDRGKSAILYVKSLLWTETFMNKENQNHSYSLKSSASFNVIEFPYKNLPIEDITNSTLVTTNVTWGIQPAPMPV
T1 sequence (P18084 24-719 limits assumed, chain 2 of 2): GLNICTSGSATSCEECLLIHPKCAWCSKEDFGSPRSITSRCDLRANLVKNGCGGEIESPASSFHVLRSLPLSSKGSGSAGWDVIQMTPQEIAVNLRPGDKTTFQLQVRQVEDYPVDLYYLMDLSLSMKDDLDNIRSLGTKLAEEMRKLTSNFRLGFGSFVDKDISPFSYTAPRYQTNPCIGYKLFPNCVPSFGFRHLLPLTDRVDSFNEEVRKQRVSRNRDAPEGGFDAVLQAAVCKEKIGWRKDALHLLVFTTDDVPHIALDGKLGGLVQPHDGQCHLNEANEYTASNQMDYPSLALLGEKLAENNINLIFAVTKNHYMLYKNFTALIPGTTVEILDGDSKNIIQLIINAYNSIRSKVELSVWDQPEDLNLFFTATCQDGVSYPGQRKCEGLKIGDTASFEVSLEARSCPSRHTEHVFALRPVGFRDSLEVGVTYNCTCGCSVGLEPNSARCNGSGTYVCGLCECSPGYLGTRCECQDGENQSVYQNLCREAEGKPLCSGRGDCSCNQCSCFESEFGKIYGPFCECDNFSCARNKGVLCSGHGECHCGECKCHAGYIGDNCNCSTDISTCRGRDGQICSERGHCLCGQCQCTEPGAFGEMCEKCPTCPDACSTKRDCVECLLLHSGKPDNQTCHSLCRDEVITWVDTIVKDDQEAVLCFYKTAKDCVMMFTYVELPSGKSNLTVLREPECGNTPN
Assay: ELISA, biotin-αvβ5 on streptavidin plate, unpurified antibody
value_kind: pEC50
// pEC50 is dimensionless: -log10 of concentration (M)

VH4/VL2 Agly-hIgG1(T299A) (antibody, V domains shown, also called H4/L2 (Agly-IgG1)) VH: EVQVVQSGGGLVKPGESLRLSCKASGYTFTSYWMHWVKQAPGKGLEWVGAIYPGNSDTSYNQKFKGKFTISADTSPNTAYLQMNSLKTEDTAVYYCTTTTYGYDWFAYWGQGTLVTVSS VL: NIQMTQSPSSLSASVGDRVTMSCKSSQSVLYSSNQKNYLAWYQQKPGKSPKLLIYWASTRESGVPDRFTGSGSGTDFTLTISSLQPEDFATYYCHQYLSSLTFGQGTKLEIK    9.40
VH2/VL1 Agly-hIgG1(T299A) (antibody, V domains shown, also called H2/L1) VH: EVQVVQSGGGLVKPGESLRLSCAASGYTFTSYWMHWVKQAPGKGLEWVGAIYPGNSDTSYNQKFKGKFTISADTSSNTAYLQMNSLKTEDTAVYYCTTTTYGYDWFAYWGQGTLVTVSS VL: DIQMTQSPSSLSASVGDRVTMTCKSSQSVLYSSNQKNYLAWYQQKPGKAPKLLIYWASTRESGVPDRFSGSGSGTDFTLTISSLQPEDFATYYCHQYLSSLTFGQGTKLEIK    9.00

# next binder below
Kindly indicate its recorded pEC50. Item: VH4/VL0 Agly-hIgG1(T299A) (antibody, V domains shown, also called H4/L0 (Agly-IgG1)) VH: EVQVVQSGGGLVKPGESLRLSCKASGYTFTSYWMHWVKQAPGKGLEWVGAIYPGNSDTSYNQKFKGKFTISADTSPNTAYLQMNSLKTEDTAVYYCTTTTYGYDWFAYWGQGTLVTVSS VL: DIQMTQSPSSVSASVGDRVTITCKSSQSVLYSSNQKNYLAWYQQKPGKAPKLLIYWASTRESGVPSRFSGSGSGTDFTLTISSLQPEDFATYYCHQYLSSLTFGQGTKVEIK
9.52
